Assay: chemical genetic growth profiling, strain panel (AID 1159580);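 further: tested at 20 µM; growth read once vehicle control cultures reached saturation at 30 °C; 1 = growth at the plate median or of vehicle wells; lower values mean less growth of the strain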
Conditions: S. cerevisiae deletion strains, growth OD, locus YGL078C, strain dbp3, active compounds read low
About 2,000 (36%) of roughly 5,500 compounds were called active. About 18% were inconclusive and are not listed. Some of the results follow.
measuredEndpoint: normalized growth
Give bare numbers.

The following compounds have reported results that may help.
- compound: "COc1ccc2c(=O)ccoc2c1"
  normalized growth: 1.02
- compound: "Cc1onc(-c2ccccc2Cl)c1C(=O)N[C@@H]1C(=O)N2[C@@H]1SC(C)(C)[C@@H]2C(=O)O"
  normalized growth: 1.02
- compound: "Cc1onc(-c2ccccc2)c1C(=O)NC1C(=O)N2[C@@H]1SC(C)(C)[C@@H]2C(=O)O (stereo not given in full)"
  normalized growth: 0.998
- compound: "CC[C@H]1OC(=O)[C@H](C)[C@@H](O[C@H]2C[C@@](C)(OC)[C@@H](O)[C@H](C)O2)[C@H](C)[C@@H](O[C@@H]2O[C@H](C)C[C@H](N(C)C)[C@H]2O)[C@](C)(O)C[C@@H](C)[C@@H]2N[C@@H](COCCOC)O[C@H]([C@H]2C)[C@]1(C)O"
  normalized growth: 1.01
- compound: "CC[C@H]1CN2CCc3cc(OC)c(OC)cc3C2C[C@@H]1CC1NCCc2cc(OC)c(OC)cc21 (stereo not given in full)"
  normalized growth: 0.986

Give normalized growth for each of the items listed below.
1. Cc1onc(-c2c(Cl)cccc2Cl)c1C(=O)N[C@@H]1C(=O)N2[C@@H]1SC(C)(C)[C@@H]2C(=O)O
2. CC(=O)CC1CCCCN1 (stereo not given)
3. O=C(O)c1cc(=O)c2c(Cl)cc(Cl)cc2[nH]1
4. COc1c2ccoc2cc2oc(C)cc(=O)c12

A)
[1, 0.991, 1.01, 0.999]

# batch size: 6; output normalized growth per entry
1. NCC1OC(OC2C(CO)OC(OC3C(O)C(N)CC(N)C3OC3OC(CO)C(O)CC3N)C2O)C(N)C(O)C1OC1OC(CO)C(O)C(O)C1O (stereo not given)
2. COc1cc2c(cc1OC)-c1c(oc3c4c(ccc3c1=O)OC(C(C)C)C4)CO2 (stereo not given)
3. C=C(C)[C@H]1Cc2c(ccc3c2O[C@@H]2COc4cc(OC)c(OC)cc4[C@@H]2C3=O)O1
4. CCN(CC)CCNC(=O)c1cc(Cl)c(N)cc1OC
5. CCCc1nc2c(C)cc(-c3nc4ccccc4n3C)cc2n1Cc1ccc(-c2ccccc2C(=O)O)cc1
6. COc1cc2c(cc1OC)[C@@H]1C(=O)c3ccc4c(c3O[C@@H]1CO2)CC(C(C)C)O4 (stereo not given in full)

A)
0.997
0.938
1.01
0.997
1.01
1.01

###

Assay: chemical genetic growth profiling, strain panel (AID 1159580);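 further: tested at 20 µM; growth read once vehicle control cultures reached saturation at 30 °C; 1 = growth at the plate median or of vehicle wells; lower values mean less growth of the strain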
Settings: S. cerevisiae deletion strains, growth OD, locus YNL067W, strain RPL9B, active compounds read low
In all, about 5,500 compounds went through this assay and about 2,000 (36%) were called active. Not shown: some 18% with an inconclusive outcome. Some of the results follow.
measuredEndpoint: normalized growth
One number for each entry.

Below, 5 compounds whose answers are already recorded.
- compound: "Cc1onc(-c2ccccc2)c1C(=O)NC1C(=O)N2[C@@H]1SC(C)(C)[C@@H]2C(=O)O (some centres not stated)"
  normalized growth: 1.02
- compound: "Cc1cc(C(C)(C)C)cc(C)c1CC1=NCCN1"
  normalized growth: 1.02
- compound: "CC(=O)OCC(=O)[C@@]1(O)CCC2C3CCC4=CC(=O)CC[C@]4(C)C3[C@@H](O)C[C@@]21C (some centres not stated)"
  normalized growth: 1.01
- compound: "CC[C@H]1CN2CCc3cc(OC)c(OC)cc3C2C[C@@H]1CC1NCCc2cc(OC)c(OC)cc21 (some centres not stated)"
  normalized growth: 1.01
- compound: "CC(=O)c1cc2c(cc1O)OC(C)(C)C=C2"
  normalized growth: 1.01

Value sought for every listed compound: normalized growth.
1. CNC(Cc1c[nH]c2ccccc12)C(=O)O (configuration not stated)
2. Cc1onc(-c2ccccc2Cl)c1C(=O)N[C@@H]1C(=O)N2[C@@H]1SC(C)(C)[C@@H]2C(=O)O
3. COc1ccc2c(c1OC)OC[C@@H](c1ccc(OC)c(OC)c1OC)C2
4. CO[C@@]1(NC(=O)Cc2cccs2)C(=O)N2C(C(=O)O)=C(COC(N)=O)CS[C@@H]21
5. CC1(C)S[C@@H]2[C@H](NC(=O)Cc3ccccc3)C(=O)N2[C@H]1C(=O)O

A)
1. 0.988
2. 1.02
3. 1.01
4. 1
5. 1

State the recorded normalized growth for every item in the following list.
1. O=c1[nH]cnc2c1ncn2C1O[C@H](CO)[C@@H](O)[C@H]1O (some centres not stated)
2. O=C1c2ccccc2C(=O)C1c1ccccc1
3. COc1cc2c(cc1O)CCNC2C (configuration not stated)
4. CC(=O)N[C@@H](Cc1c[nH]c2ccccc12)C(=O)O
5. COC(=O)C[C@H]1C(C)(C)[C@@H](O)[C@@H]2CC3=C4C=C(OC)O[C@@H](c5ccoc5)[C@]4(C)CCC3[C@@]1(C)C2=O (some centres not stated)
6. CCc1cccc2c3c([nH]c12)C(CC)(CC(=O)O)OCC3 (configuration not stated)
7. CC(=O)Oc1cccc(C(=O)O)c1OC(C)=O
8. NCC1OC(OC2C(CO)OC(OC3C(O)C(N)CC(N)C3OC3OC(CO)C(O)CC3N)C2O)C(N)C(O)C1OC1OC(CO)C(O)C(O)C1O (configuration not stated)

A)
1.01
0.999
0.988
1.01
0.997
1.02
1.01
0.976

Below are some compounds; for each one, tell me its normalized growth.
1. COc1ccc([C@H]2COc3c(ccc(O)c3OC)C2)c(OC)c1O
2. CC(=O)Oc1cccc2c1C(=O)c1c(OC(C)=O)cc(C(=O)O)cc1C2=O
3. C#CC1(O)CCC2C3CCC4=CC(=O)CCC4(C)C3CCC21C (configuration not stated)
4. O=C(O)c1cc(=O)c2c(Cl)cc(Cl)cc2[nH]1
5. NC(=O)NO
6. c1ccc([C@H]2CN3CCSC3=N2)cc1
7. COc1cnc(NS(=O)(=O)c2ccc(N)cc2)nc1

A)
1: 0.996; 2: 1.01; 3: 1.02; 4: 0.997; 5: 1; 6: 1; 7: 0.982

Provide normalized growth values for the following items, in order.
1. COP(=O)(OC)OC(Br)C(Cl)(Cl)Br (configuration not stated)
2. Cc1cc(C(C)(C)C)c(O)c(C)c1CC1=NCCN1
3. NC1C[C@H]1c1ccccc1 (some centres not stated)

A)
0.974
0.988
1.01

I need normalized growth for every entry listed below, if you could help.
1. COc1cc2cc3c4cc(OC)c(OC)cc4cc[n+]3c(C)c2cc1OC
2. COc1cc(NS(=O)(=O)c2ccc(N)cc2)ncn1
3. C[C@]12CCC(=O)C=C1CCC1C2[C@@H](O)C[C@@]2(C)C1CC[C@]2(O)C(=O)COC(=O)CCC(=O)O (some centres not stated)
4. Cc1onc(-c2c(Cl)cccc2Cl)c1C(=O)N[C@@H]1C(=O)N2[C@@H]1SC(C)(C)[C@@H]2C(=O)O

A)
1. 1.01
2. 0.981
3. 1.01
4. 1

###

Experiment: chemical genetic growth profiling, strain panel (AID 1159580);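 further: tested at 20 µM; growth read once vehicle control cultures reached saturation at 30 °C; 1 = growth at the plate median or of vehicle wells; lower values mean less growth of the strain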
Conditions: S. cerevisiae deletion strains, growth OD, locus YIL066C, strain RNR3, active compounds read low
Out of some 5,500 compounds screened, about 2,000 (36%) were called active. Inconclusive results (about 18%) are left out. This is one part of the list.
Exercise: for every item that follows, state its recorded normalized growth.
Give bare numbers.

# annotated cases, reported normalized growth shown
- compound: "COc1ccc(C(=O)O)c(O)c1OC"
  normalized growth: 1.03
- compound: "CCOc1ccc(C(=O)c2ccc(O)c(O)c2O)cc1"
  normalized growth: 0.88
- compound: "CC(=O)[C@@]1(O)CCC2C3CCC4=CC(=O)CC[C@]4(C)C3CC[C@@]21C (stereo not given in full)"
  normalized growth: 0.994
- compound: "CC1=CC(=O)C2=C(C)CC(O)C3C(C)C(=O)OC3C12 (stereo not given)"
  normalized growth: 0.993
- compound: "COc1cnc(NS(=O)(=O)c2ccc(N)cc2)nc1"
  normalized growth: 0.978

// for each compound below, give its normalized growth
1. O=C(O)c1cc([N+](=O)[O-])ccc1NCCCc1ccccc1
2. Cc1cc(C(C)(C)C)c(O)c(C)c1CC1=NCCN1

A)
1: 0.983; 2: 1

###

Test: chemical genetic growth profiling, strain panel (AID 1159580);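 further: tested at 20 µM; growth read once vehicle control cultures reached saturation at 30 °C; 1 = growth at the plate median or of vehicle wells; lower values mean less growth of the strain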
Details: S. cerevisiae deletion strains, growth OD, locus YOR265W, strain rbl2, active compounds read low
Out of some 5,500 compounds screened, about 2,000 (36%) were called active. Not shown: some 18% with an inconclusive outcome. The list shows a part of the results.
Please go through the items and note down their normalized growth.
Give bare numbers.

- chemicalStructure: "COc1ccc(C(=O)c2ccc(O)cc2)c(O)c1O"
  normalized growth: 0.979
- chemicalStructure: "COc1ccc([C@H]2COc3c(ccc(O)c3OC)C2)c(OC)c1O"
  normalized growth: 0.994
- chemicalStructure: "NC(N)=NC(N)=Nc1ccccc1"
  normalized growth: 1.01

Here is another compound to look at.
Q) Reported normalized growth, compound CNS(=O)(=O)Cc1ccc2[nH]cc(CCN(C)C)c2c1 : ____
A) 1.01
